# Tested on: human lung cancer A549 cells
# ASSAY_DETAILS: Orthotopic transplantation tumor model of human lung cancer A549 cells;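 note: test animals were NOG mice aged 6-8 weeks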
# MEASUREMENT_PARAMETERS: after administration for 28 days
Would you kindly list Mice weight after experiment for each of these molecules?
Answers are plain numbers, in g.

rLZ-8 (L17K/D70K): rLZ-8 mutant after surface potential optimization, L17K and D70K (protein) MSDTALIFRLAWDVKKKSFDYTPNWGRGNPNNFIDTVTFPKVLTDKAYTYRVAVSGRNLGVKPSYAVESKGSQKVNFLEYNSGYGIADTNTIQVFVVDPDTNNDFIIAQWN    21.2

Kindly review the next molecule as well.
Record request: Mice weight after experiment value, item rLZ-8 (D45A): alanine mutant of rLZ-8 at D45 (protein) MSDTALIFRLAWDVKKLSFDYTPNWGRGNPNNFIDTVTFPKVLTAKAYTYRVAVSGRNLGVKPSYAVESDGSQKVNFLEYNSGYGIADTNTIQVFVVDPDTNNDFIIAQWN
17.5

Source: patent US12077566B2
